# Experiment Notes: self-splicing fitness, log relative to wild type (ln ratio); higher = more splicing; Tetrahymena group I intron in knt gene, E. coli kanamycin selection, DiMSum; sequences stand for … in CUCUCU…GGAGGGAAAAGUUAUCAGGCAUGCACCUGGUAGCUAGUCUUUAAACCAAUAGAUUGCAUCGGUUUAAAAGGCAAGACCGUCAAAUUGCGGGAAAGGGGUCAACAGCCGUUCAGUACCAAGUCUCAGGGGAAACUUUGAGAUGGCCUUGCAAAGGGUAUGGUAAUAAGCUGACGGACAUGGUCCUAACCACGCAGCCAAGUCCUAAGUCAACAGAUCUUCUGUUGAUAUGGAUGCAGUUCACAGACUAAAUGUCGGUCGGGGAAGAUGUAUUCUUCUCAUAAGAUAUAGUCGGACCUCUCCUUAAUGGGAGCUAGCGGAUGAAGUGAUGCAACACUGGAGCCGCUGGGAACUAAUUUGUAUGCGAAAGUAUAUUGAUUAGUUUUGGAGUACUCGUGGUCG;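 note: selection with 25 µg/mL kanamycin versus none on LB agar overnight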
# Experimental Setup: 30 °C
Returns satisfied if the recorded self-splicing fitness (ln) is greater than or equal to -2, and not satisfied otherwise.

In: Quick check, self-splicing fitness (ln) >= -2? CGAAAGCAAUAUUACGUAGG
Out: satisfied

In: How about GCUGAGCAAUAUUACGCGCA ?
Out: satisfied

----------
# Experiment Notes: self-splicing fitness, log relative to wild type (ln ratio); higher = more splicing; Tetrahymena group I intron in knt gene, E. coli kanamycin selection, DiMSum; sequences stand for … in CUCUCU…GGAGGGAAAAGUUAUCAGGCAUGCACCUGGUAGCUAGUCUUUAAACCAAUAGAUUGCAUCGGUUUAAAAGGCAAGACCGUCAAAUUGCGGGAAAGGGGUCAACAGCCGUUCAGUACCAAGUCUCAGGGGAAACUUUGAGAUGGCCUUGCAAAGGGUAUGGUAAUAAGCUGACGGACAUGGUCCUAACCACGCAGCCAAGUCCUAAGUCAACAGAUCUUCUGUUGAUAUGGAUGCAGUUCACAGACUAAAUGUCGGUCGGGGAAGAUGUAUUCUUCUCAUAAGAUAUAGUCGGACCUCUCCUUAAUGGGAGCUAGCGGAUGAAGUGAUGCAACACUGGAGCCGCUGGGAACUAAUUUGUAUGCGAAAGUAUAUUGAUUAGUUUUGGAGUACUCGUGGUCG
# Experimental Setup: 37 °C
Listed here are sequences together with their documented self-splicing fitness (ln).

Some sequences with known self-splicing fitness (ln) results, for comparison:
GACUAGCAAUAUUACGGGCA: 0.2
GUAGAGCAAUAUUACGCAUC: -1.37

In: What value of measured self-splicing fitness (ln) is listed for CUGUAGCAAUAUUACGUGAG ?
Out: -0.935

In: How about GGGUAGCAAUAUUACGAUAA ?
Out: 0.147

In: How about AGUUAGCAAUAUUACGUAGC ?
Out: -0.803

In: How about GAGCAGCAAUAUUACGUGCA ?
Out: -0.471

In: How about CUCCAGCAAUAUUACGAUGA ?
Out: -2.7

----------
# Experiment Notes: self-splicing fitness, log relative to wild type (ln ratio); higher = more splicing; Tetrahymena group I intron in knt gene, E. coli kanamycin selection, DiMSum; sequences stand for … in CUCUCU…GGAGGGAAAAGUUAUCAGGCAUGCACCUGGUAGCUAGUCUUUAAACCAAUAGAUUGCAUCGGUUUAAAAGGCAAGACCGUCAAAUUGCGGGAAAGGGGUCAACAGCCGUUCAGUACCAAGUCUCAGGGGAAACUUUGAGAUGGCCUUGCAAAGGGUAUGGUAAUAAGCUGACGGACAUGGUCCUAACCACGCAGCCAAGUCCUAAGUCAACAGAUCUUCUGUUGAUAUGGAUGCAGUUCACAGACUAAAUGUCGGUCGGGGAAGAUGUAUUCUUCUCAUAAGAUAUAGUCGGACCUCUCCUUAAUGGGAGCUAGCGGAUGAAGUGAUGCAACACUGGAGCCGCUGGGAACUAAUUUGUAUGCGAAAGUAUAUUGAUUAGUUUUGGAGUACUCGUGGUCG
# Experimental Setup: 37 °C
Listed here are sequences together with their documented self-splicing fitness (ln).
Give a plain numeric answer without units written out.

Some sequences with known self-splicing fitness (ln) results, for comparison:
ACAGAGCAAUAUUACGAUCG: -1.88
GACCAGCAAUAUUACGACAG: -2.22
GAAGAGCAAUAUUACGUUGG: -2.34
AACCAGCAAUAUUACGUUAA: -1.26
CGCUAGCAAUAUUACGGAAG: 0.348
GACUAGCAAUAUUACGAAGA: -0.416

In: What value of measured self-splicing fitness (ln) is listed for GCGAAGCAAUAUUACGGGCC ?
Out: -1.37

In: How about UCUUAGCAAUAUUACGGUCA ?
Out: -0.613
